Molecular target: Pma1p ATPase (Saccharomyces cerevisiae)
Sequence (P05030 1-918): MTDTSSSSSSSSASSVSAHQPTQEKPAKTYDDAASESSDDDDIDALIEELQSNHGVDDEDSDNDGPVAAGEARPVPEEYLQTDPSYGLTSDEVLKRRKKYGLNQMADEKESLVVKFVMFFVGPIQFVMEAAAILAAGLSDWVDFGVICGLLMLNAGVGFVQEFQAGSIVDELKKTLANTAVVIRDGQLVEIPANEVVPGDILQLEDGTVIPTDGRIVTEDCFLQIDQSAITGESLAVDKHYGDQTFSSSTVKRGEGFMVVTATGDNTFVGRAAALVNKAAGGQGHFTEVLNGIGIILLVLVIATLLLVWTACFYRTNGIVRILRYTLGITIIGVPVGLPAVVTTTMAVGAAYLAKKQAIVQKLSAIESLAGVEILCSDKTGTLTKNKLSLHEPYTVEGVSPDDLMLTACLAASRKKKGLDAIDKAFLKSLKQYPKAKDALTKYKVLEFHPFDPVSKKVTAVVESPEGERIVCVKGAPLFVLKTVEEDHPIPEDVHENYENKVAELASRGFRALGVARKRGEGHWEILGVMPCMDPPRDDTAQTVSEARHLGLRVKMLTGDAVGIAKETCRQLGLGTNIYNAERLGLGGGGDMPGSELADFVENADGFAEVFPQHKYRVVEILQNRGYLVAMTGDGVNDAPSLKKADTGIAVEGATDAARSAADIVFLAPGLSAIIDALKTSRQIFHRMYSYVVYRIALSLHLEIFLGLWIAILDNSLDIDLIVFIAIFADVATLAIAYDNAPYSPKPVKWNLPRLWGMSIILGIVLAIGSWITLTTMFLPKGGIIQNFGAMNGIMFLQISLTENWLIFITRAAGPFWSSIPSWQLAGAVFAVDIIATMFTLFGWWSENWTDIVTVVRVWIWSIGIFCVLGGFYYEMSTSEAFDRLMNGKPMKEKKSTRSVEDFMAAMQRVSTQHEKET
Experiment: Pma1p ATPase assay
Type: biochemical
Conditions: read-out: IC50 Pma1p ATPase; pH 7.0, 10 μM oligomycin
Non-standard residues stand in square brackets, D forms with d.
assay_readout: pIC50
Note on units: pIC50 is unitless, being -log10 of a concentration expressed in mol/L.

Sample records with pIC50:
[[record]]
substance = "D-NH2-FFKWQRRR-CONH2 (H-[dF][dF][dK][dW][dQ][dR][dR][dR]-NH2)"
assay_readout = "pIC50"
recorded_number = 5.30

[[record]]
substance = "D-NH2-FFKWQRRR-CONH2 + Mtr (H-[dF][dF][dK][dW][dQ][dR][dR][dR]-NH2; also: + Mtr, position not given here) [RC21]"
assay_readout = "pIC50"
recorded_number = 5.30


// moving on: another record for pIC50
INPUT: Using the record for RC21v2: HPLC-purified RC21 derivative with a single Mtr group attached to one of its three C-terminal arginine residues (FFKWQRRR) , report its pIC50.
OUTPUT: 5.30
